src = patent US20100113613A1

# experiment.summary: Single oral and intravenous dose pharmacokinetics, dose range-finding study in beagle dogs
# Assay type: in vivo, beagle dog
# measurement.setup: beagle, dog, plasma; dogs, single intravenous dose 80 mg/kg; read-out: VdSS
value.kind: Vd (L/kg)
Answer format: numeric, L/kg implied, no suffix.

// field: Vd; key: OC1C(O)C(O)C(O)C(O)C1O (stereo not shown) ; value = 2.1

---

# experiment.summary: Brain penetrance: plasma and CSF pharmacokinetics after single oral doses in dogs
# Type: in vivo, dog
# measurement.setup: dog, PLASMA LEVELS, single oral dose 240 mg/kg
value.kind: Cmax (µg/mL)
Answer format: numeric, µg/mL implied, no suffix.

// field: Cmax; key: OC1C(O)C(O)C(O)C(O)C1O (stereo not shown) [AZD-103, scyllo-inositol] ; value = 101

---

# experiment.summary: in vivo
# measurement.setup: dog, po, 50 mg/kg
value.kind: CL/F (mL/min/kg)
Answer format: numeric, mL/min/kg implied, no suffix.

// field: CL/F; key: OC1C(O)C(O)C(O)C(O)C1O (stereo not shown) ; value = 2.07

---

# experiment.summary: clinical
# measurement.setup: male, human, in vivo, po, 1000 mg
value.kind: AUC(0-inf) (µg·h/mL)
Answer format: numeric, µg·h/mL implied, no suffix.

// field: AUC(0-inf); key: OC1C(O)C(O)C(O)C(O)C1O (stereo not shown) ; value = 130

---

# experiment.summary: Single oral and intravenous dose pharmacokinetics, dose range-finding study in beagle dogs
# Assay type: in vivo, beagle dog
# measurement.setup: beagle, dog, plasma; dogs, single intravenous dose 240 mg/kg; read-out: VdSS
value.kind: Vd (L/kg)
Answer format: numeric, L/kg implied, no suffix.

// field: Vd; key: OC1C(O)C(O)C(O)C(O)C1O (stereo not shown) ; value = 3.22

---

# experiment.summary: in vivo
# measurement.setup: rat, po, 150 mg/kg
value.kind: CL/F at 28 days (mL/min/kg)
Answer format: numeric, mL/min/kg implied, no suffix.

// field: CL/F at 28 days; key: OC1C(O)C(O)C(O)C(O)C1O (stereo not shown) ; value = 8.41

---

# experiment.summary: clinical
# measurement.setup: male, human, in vivo, po, 3500 mg
value.kind: AUC(0-t)
// unit must come after the numeric part

// field: AUC(0-t); key: OC1C(O)C(O)C(O)C(O)C1O (stereo not shown) ; value = 441 µg·h/mL

---

# experiment.summary: Brain penetrance: plasma and CSF pharmacokinetics after single oral doses in dogs
# Type: in vivo, dog
# measurement.setup: dog, CSF, single oral dose 20 mg/kg
value.kind: AUC(0-t) (ng·h/mL)
Answer format: numeric, ng·h/mL implied, no suffix.

// field: AUC(0-t); key: OC1C(O)C(O)C(O)C(O)C1O (stereo not shown) ; value = 20600

---

# experiment.summary: Brain penetrance: plasma and CSF pharmacokinetics after single oral doses in dogs
# Type: in vivo, dog
# measurement.setup: dog, CSF, single oral dose 80 mg/kg
value.kind: AUC(0-t) (ng·h/mL)
Answer format: numeric, ng·h/mL implied, no suffix.

// field: AUC(0-t); key: OC1C(O)C(O)C(O)C(O)C1O (stereo not shown) [AZD-103, scyllo-inositol] ; value = 98000

---

# experiment.summary: in vivo
# measurement.setup: rat, po, 50 mg/kg, 28 days
value.kind: Vd (L/kg)
Answer format: numeric, L/kg implied, no suffix.

// field: Vd; key: OC1C(O)C(O)C(O)C(O)C1O (stereo not shown) [AZD-103, scyllo-inositol] ; value = 1.73

---

# experiment.summary: Single oral and intravenous dose pharmacokinetics, dose range-finding study in beagle dogs
# Format: in vivo, beagle dog
# measurement.setup: beagle, dog, plasma; dogs, 80 mg/kg dose level, oral vs i.v.
value.kind: bioavailability

// field: bioavailability; key: OC1C(O)C(O)C(O)C(O)C1O (stereo not shown) [AZD-103, scyllo-inositol] ; value = > 90%

---

# experiment.summary: in vivo
# measurement.setup: dog, po, 15 mg/kg
value.kind: AUC(0-t) (ng·h/mL)
Answer format: numeric, ng·h/mL implied, no suffix.

// field: AUC(0-t); key: OC1C(O)C(O)C(O)C(O)C1O (stereo not shown) ; value = 75200

---

# experiment.summary: clinical
# measurement.setup: male, human, in vivo, 7000 mg
value.kind: half-life

// field: half-life; key: OC1C(O)C(O)C(O)C(O)C1O (stereo not shown) ; value = 18.4 h

---

# experiment.summary: Single oral and intravenous dose pharmacokinetics, dose range-finding study in beagle dogs
# Assay type: in vivo, beagle dog
# measurement.setup: beagle, dog, plasma; dogs, single intravenous dose 80 mg/kg
value.kind: MRT
// unit must come after the numeric part

// field: MRT; key: OC1C(O)C(O)C(O)C(O)C1O (stereo not shown) ; value = 4.6 h

---

# experiment.summary: Single oral and intravenous dose pharmacokinetics, dose range-finding study in beagle dogs
# Assay type: in vivo, beagle dog
# measurement.setup: beagle, dog, plasma; dogs, single intravenous dose 80 mg/kg
value.kind: AUC(0-t)
// unit must come after the numeric part

// field: AUC(0-t); key: OC1C(O)C(O)C(O)C(O)C1O (stereo not shown) ; value = 167 µg·h/mL

---

# experiment.summary: CSF and plasma levels at end of 14 day repeat dose study in dogs
# Assay type: in vivo, dog
# measurement.setup: dog, plasma, oral, after 14 days dosing, Dose 30 mg/kg, read-out: Plasma level at 12 h
value.kind: concentration at 12 h (ng/mL)
Answer format: numeric, ng/mL implied, no suffix.

// field: concentration at 12 h; key: OC1C(O)C(O)C(O)C(O)C1O (stereo not shown) [AZD-103, scyllo-inositol] ; value = 3600

---

# experiment.summary: clinical
# measurement.setup: male, human, in vivo, po, 3500 mg
value.kind: Tmax (h)
Answer format: numeric, h implied, no suffix.

// field: Tmax; key: OC1C(O)C(O)C(O)C(O)C1O (stereo not shown) ; value = 2.75

---

# experiment.summary: clinical
# measurement.setup: male, human, in vivo, po, 2000 mg
value.kind: Tmax
// unit must come after the numeric part

// field: Tmax; key: OC1C(O)C(O)C(O)C(O)C1O (stereo not shown) ; value = 2.75 h

---

# experiment.summary: in vivo
# measurement.setup: rat, po, 15 mg/kg
value.kind: Vd (L/kg)
Answer format: numeric, L/kg implied, no suffix.

// field: Vd; key: OC1C(O)C(O)C(O)C(O)C1O (stereo not shown) [AZD-103, scyllo-inositol] ; value = 2.82

---

# experiment.summary: in vivo
# measurement.setup: rat, po, 50 mg/kg
value.kind: half-life at 28 days

// field: half-life at 28 days; key: OC1C(O)C(O)C(O)C(O)C1O (stereo not shown) ; value = 3.3 h

---

# experiment.summary: clinical
# measurement.setup: male, human, in vivo, po, 7000 mg
value.kind: half-life (h)
Answer format: numeric, h implied, no suffix.

// field: half-life; key: OC1C(O)C(O)C(O)C(O)C1O (stereo not shown) [AZD-103, scyllo-inositol] ; value = 18.4

---

# experiment.summary: Single oral and intravenous dose pharmacokinetics, dose range-finding study in beagle dogs
# Format: in vivo, beagle dog
# measurement.setup: beagle, dog, plasma; dogs, single oral dose 20 mg/kg
value.kind: AUC(0-inf) (ng·h/mL)
Answer format: numeric, ng·h/mL implied, no suffix.

// field: AUC(0-inf); key: OC1C(O)C(O)C(O)C(O)C1O (stereo not shown) [AZD-103, scyllo-inositol] ; value = 51700

---

# experiment.summary: in vivo
# measurement.setup: dog, po, 150 mg/kg
value.kind: Cmax (µg/mL)
Answer format: numeric, µg/mL implied, no suffix.

// field: Cmax; key: OC1C(O)C(O)C(O)C(O)C1O (stereo not shown) ; value = 121

---

# experiment.summary: Brain penetrance: plasma and CSF pharmacokinetics after single oral doses in dogs
# Format: in vivo, dog
# measurement.setup: dog, CSF, single oral dose 80 mg/kg
value.kind: AUC(0-inf) (µg·h/mL)
Answer format: numeric, µg·h/mL implied, no suffix.

// field: AUC(0-inf); key: OC1C(O)C(O)C(O)C(O)C1O (stereo not shown) [AZD-103, scyllo-inositol] ; value = 103

---

# experiment.summary: in vivo
# measurement.setup: rat, po, 50 mg/kg
value.kind: AUC(0-t) (µg·h/mL)
Answer format: numeric, µg·h/mL implied, no suffix.

// field: AUC(0-t); key: OC1C(O)C(O)C(O)C(O)C1O (stereo not shown) ; value = 271

---

# experiment.summary: in vivo
# measurement.setup: rat, po, 15 mg/kg
value.kind: Cmax at 28 days (µg/mL)
Answer format: numeric, µg/mL implied, no suffix.

// field: Cmax at 28 days; key: OC1C(O)C(O)C(O)C(O)C1O (stereo not shown) ; value = 28.5

---

# experiment.summary: in vivo
# measurement.setup: rat, po, 15 mg/kg
value.kind: AUC(0-inf) (ng·h/mL)
Answer format: numeric, ng·h/mL implied, no suffix.

// field: AUC(0-inf); key: OC1C(O)C(O)C(O)C(O)C1O (stereo not shown) [AZD-103, scyllo-inositol] ; value = 41900
